Listed below: pIC50 values for each entry.
METHOD_NOTES: Inhibitory activity against Hog kidney Na+, K+ -Dependent ATPase
Set-up: species or system Sus scrofa
RECORDED_CONDITIONS: read-out: I50
To interpret pIC50, take it as minus log10 of a concentration measured in moles per litre.

COMPOUND	pIC50
C[C@]12CC[C@H](O[C@@H]3C[C@@H](O)[C@H](O)[C@H](CO)O3)C[C@@H]1CC[C@@H]1[C@@H]2CC[C@]2(C)[C@@H](C3=CC(=O)OC3)CC[C@@]12O	7.55
C[C@@H]1O[C@@H](O[C@H]2CC[C@@]3(C)[C@@H](CC[C@@H]4[C@@H]3CC[C@]3(C)[C@@H](C5=CC(=O)OC5)CC[C@@]43O)C2)C[C@H](O)[C@@H]1O	8.15

Next, consider the following compound.
INPUT: Please give the measured pIC50 for this compound: C[C@]12CC[C@H](O[C@@H]3O[C@@H](CO)[C@@H](O)[C@H](O)[C@@H]3O)CC1CC[C@@H]1[C@@H]2CC[C@]2(C)[C@@H](C3=CC(=O)OC3)CC[C@@]12O (stereo partly drawn)
OUTPUT: 7.93

###

METHOD_NOTES: Inhibitory activity against Hog kidney Na+, K+ -Dependent ATPase
Parameters: species or system Sus scrofa
RECORDED_CONDITIONS: read-out: I50
Listed below: pIC50 values for each entry.
To interpret pIC50, take it as minus log10 of a concentration measured in moles per litre.

Field: example entries. Status: answers known.
COMPOUND	pIC50
C[C@]12CC[C@H](O[C@@H]3C[C@H](O)[C@H](O)[C@H](CO)O3)C[C@@H]1CC[C@@H]1[C@@H]2CC[C@]2(C)[C@@H](C3=CC(=O)OC3)CC[C@@]12O	7.03
C[C@]12CC[C@H](O[C@@H]3O[C@@H](CO)[C@H](O)[C@H](O)[C@@H]3O)CC1CC[C@@H]1[C@@H]2CC[C@]2(C)[C@@H](C3=CC(=O)OC3)CC[C@@]12O (stereo not given in full)	7.19
C[C@@H]1O[C@@H](O[C@H]2CC[C@@]3(C)[C@@H](CC[C@@H]4[C@@H]3CC[C@]3(C)[C@@H](C5=CC(=O)OC5)CC[C@@]43O)C2)C[C@@H]2OC(C)(C)O[C@H]12	7.38

INPUT: Please give the measured pIC50 for this compound: `C[C@]12CC[C@H](O)C[C@H]1CC[C@@H]1[C@@H]2CC[C@]2(C)[C@@H](C3=CC(=O)OC3)CC[C@]12O`
OUTPUT: 6.93

INPUT: Please give the measured pIC50 for this compound: `C[C@]12CC[C@H](O[C@H]3C[C@H](O)[C@H](O)[C@H](CO)O3)C[C@@H]1CC[C@@H]1[C@@H]2CC[C@]2(C)[C@@H](C3=CC(=O)OC3)CC[C@@]12O`
OUTPUT: 7.97
